ASSAY INFO: Plasma, tumor and lung exposure in mice of the Ba/F3 CDX efficacy experiment
Format: in vivo
MEASUREMENT CONTEXT: BALB/c nude, plasma; mouse, 15.0 mg/kg/day oral, 2 h after administration
REPORTED PROPERTY: concentration at 2 h
The reply should consist of the numeric value with the unit placed after it.

Example entries begin here.
>  <MOLECULE>
COc1cc(N2CCC(N3CCN(C)CC3)CC2)ccc1Nc1ncc(Cl)c(Nc2ccccc2P(C)(C)=O)n1 [Brigatinib, reference compound]

>  <concentration at 2 h>
5.18 µM

$$$$
>  <MOLECULE>
CCc1cc(Nc2ncc(Br)c(Nc3ccc4nccnc4c3P(C)(C)=O)n2)c(OC)cc1N1CCC(N2CCN(C)CC2)CC1

>  <concentration at 2 h>
6.99 µM

$$$$

Problem: Give reported concentration at 2 h value for "COc1cc(N2CCC(N3CCN(C)CC3)CC2)c(C)cc1Nc1ncc(Br)c(Nc2ccc3nccnc3c2P(C)(C)=O)n1"
Result: 3.55 µM
